test system: MCF7 breast; experiment: NCI tumour cell line growth inhibition, 48 h

Compound	GI50
C=C1CCC2C(/C=C(\C)CCC1O)OC(=O)C2C (centres undefined)	82200 nM
C[C@@H]1CC[C@@H]2[C@@H]1[C@H](OC(=O)/C=C/c1ccccc1)[C@]1(c3ccccc3)C[C@@H](OC(=O)CO)[C@@]2(C)O1	9190 nM
Brc1cccc(-c2cc(-c3ccc4c(c3)OCCO4)[nH]n2)c1	1060 nM
CN=C(N)N/N=C(\c1ccccc1)c1ccc(Br)cc1	268 nM
Cc1ccc2c(C(C[N+](=O)[O-])c3cccs3)c(-c3ccccc3)[nH]c2c1 (centres undefined)	1410 nM
C[C@@H]1CC[C@H]2C(COCC3=C(C(F)(F)F)O[C@@H]4O[C@@]5(C)CC[C@H]6[C@H](C)CC[C@@H]3[C@@]46OO5)=C(C(F)(F)F)O[C@@H]3O[C@@]4(C)CC[C@@H]1[C@]32OO4	< 10 nM
CC1(C)N=C(N)N=C(N)N1c1ccc(CCCCc2ccc(S(=O)(=O)F)cc2)cc1	425 nM
NC(CO)Cc1cnc[nH]1 (centres undefined)	> 100000 nM
Cc1nn(-c2ccc(F)cc2)c2ncnc(Nc3ccc(NC(=O)Nc4ccc(Cl)c(C(F)(F)F)c4)cc3)c12	2110 nM

----------
test system: UACC-62 melanoma; assay: NCI tumour cell line growth inhibition, 48 h
Short version: TGI at least 20 µM is YES, less is NO.

Compound	Assigned Class
O=C1/C(=C/c2ccc(F)cc2)CCOc2ccc([N+](=O)[O-])cc21	NO
Cc1ccc(N=Nc2c3c(c(O)c4ccccc24)CCC(C)(C)O3)cc1	YES
O=C1CC2(C[C@@H]3CCCCCCCCC[C@@H](C3)C2)N1 (stereo partly specified)	YES
c1ccc(C[P+]2(c3ccccc3)c3ccccc3-c3ccccc32)cc1	YES
Cc1cccc(N2C(=O)C3ON(C(C(N)=O)c4ccccc4)C(c4c5ccccc5c(Cl)c5ccccc45)C3C2=O)c1C (stereo unspecified)	NO
COc1cc2c(cc1OCCCCCOc1cc3c(cc1OC)C(=O)N1CCC[C@H]1C(=O)N3)N=C[C@@H]1CCCN1C2=O	NO
O=C(NS(=O)(=O)Nc1ccc(Cl)cc1)OCc1ccc(Cl)cc1Cl	YES
C=CC(=O)N[C@H]1C=C(C)c2c(-c3cnc4ccccc4c3)c3c(N)ncnc3n2C1	YES
O=C1CC2C=CC(O)C(C1)C2 (stereo unspecified)	YES
COC1(C)CC2N(C(=O)c3ccccc3)N=C(c3ccccc3)CC2(C)O1 (stereo unspecified)	YES
O=C1NC2(CCCC2)C(=O)C12CCCC2	YES
COc1ccc(/C(=C/n2ccnc2)C(=O)c2ccc(OC)c(OC)c2)cc1	YES
CCOC(=O)C1(CC)CCCCC(=O)N1 (stereo unspecified)	YES
O=C(CCN1CCN(c2cnc3ccccc3n2)CC1)c1csc2ccccc12	YES
CC(=O)NC1C(OCc2ccccc2)OC(CO)C(O)C1OCC(=O)N[C@@H](C)C(=O)N[C@H](CCC(=O)NCCNCCNc1c2ccccc2nc2cccc([N+](=O)[O-])c12)C(N)=O (stereo partly specified)	YES
COc1ccc(-c2nn(-c3cccc(Cl)c3)cc2C2CC(c3ccccc3)=NN2C(C)=O)cc1 (stereo unspecified)	YES
C#Cc1cnc(=O)n(C2CC(O)C(CO)O2)c1 (stereo unspecified)	YES
C=C1C(O)C2CCC(C)(C)C(=O)C2=C(CC(C)C)C12CC2 (stereo unspecified)	YES
COC(=O)C1OC(O[C@H]2CCC3(C)C(CCC4(C)C3CC=C3C5CC(C)(C)CCC5(C(=O)O)CC[C@]34C)C2(C)C)C(O)C(OC2OC(CO)C(O)C(O)C2O)C1O (stereo partly specified)	NO
NC(N)=N/N=C(/c1ccccc1)c1ccc(F)cc1	NO
